Tested on: Crude diglycosidase
TEST: Examination of temperature in the conversion into isoflavone aglycons by diglycosidase using soybean materials
Type: biochemical, Penicillium multicolor IAM7153
EXPERIMENTAL_CONTEXT: 30 °C; heat treatment of enzyme: no; 6 h
Please respond with reported Decomposition efficiency of glycitin family in soymilk for every item in the list.
Entry rule: numbers only, all in %.

Input: Determine its reported Decomposition efficiency of glycitin family in soymilk: COc1cc2c(=O)c(-c3ccc(O)cc3)coc2cc1O[C@@H]1O[C@H](COC(=O)CC(=O)O)[C@@H](O)[C@H](O)[C@H]1O [malonylglycitin, 6″-O-malonylglycitin]
Output: 28.4

Input: Read the entry COc1cc2c(=O)c(-c3ccc(O)cc3)coc2cc1O [glycitein] and write its reported Decomposition efficiency of glycitin family in soymilk.
Output: 71.6

====

System: Diglycosidase derived from P. multicolor
TEST: Reactivity toward various isoflavone glycosides (HPLC)
Assay type: biochemical, Penicillium multicolor
Design: unit not given here
EXPERIMENTAL_CONTEXT: Reaction time 1 h; 55 °C, pH 4.0
MEASURED_PARAMETER: glucoside
Please give only the number in your answer, with no unit.

Input: Return the recorded glucoside value; entry: COc1cc2c(=O)c(-c3ccc(O)cc3)coc2cc1O[C@@H]1O[C@H](COC(=O)CC(=O)O)[C@@H](O)[C@H](O)[C@H]1O
Output: 21.7

Input: Fill in reported glucoside for this entry: O=c1c(-c2ccc(O)cc2)coc2cc(O[C@@H]3O[C@H](CO)[C@@H](O)[C@H](O)[C@H]3O)cc(O)c12
Output: 100

Input: Using known records, supply glucoside for COc1cc2c(=O)c(-c3ccc(O)cc3)coc2cc1O[C@@H]1O[C@H](CO)[C@@H](O)[C@H](O)[C@H]1O
Output: 2.1

====

For each entry below, report its glucoside value.
Test system: Diglycosidase derived from A. fumigatus
TEST: Reactivity toward various isoflavone glycosides (HPLC)
Format: biochemical, Aspergillus fumigatus
Set-up: unit not given here
EXPERIMENTAL_CONTEXT: Reaction time 3 h; 55 °C, pH 4.0
No unit in the answer, only the number.

Input: Item O=c1c(-c2ccc(O)cc2)coc2cc(O[C@@H]3O[C@H](CO)[C@@H](O)[C@H](O)[C@H]3O)ccc12 [daidzin] : provide glucoside
Output: 85.3

Input: Read the entry COc1cc2c(=O)c(-c3ccc(O)cc3)coc2cc1O[C@@H]1O[C@H](COC(C)=O)[C@@H](O)[C@H](O)[C@H]1O [acetylglycitin, 6″-O-acetylglycitin] and write its reported glucoside.
Output: 86.5

Input: Dear colleague, please send me the reported glucoside for O=C(O)CC(=O)OC[C@H]1O[C@@H](Oc2cc(O)c3c(=O)c(-c4ccc(O)cc4)coc3c2)[C@H](O)[C@@H](O)[C@@H]1O [malonylgenistin, 6″-O-malonylgenistin] when you can.
Output: 94.8

====

I'd be grateful if you could share measured Decomposition efficiency of daidzin family in roasted soy flour for these entries.
System: Crude diglycosidase
TEST: Examination of pH in the conversion into isoflavone aglycons by diglycosidase using soybean materials
Assay type: biochemical, Penicillium multicolor IAM7153
EXPERIMENTAL_CONTEXT: pH3, heat treatment of enzyme no, reaction time 1 h, 55° C.
Give only the figure.

Input: Fill in reported Decomposition efficiency of daidzin family in roasted soy flour for this entry: O=c1c(-c2ccc(O)cc2)coc2cc(O)ccc12 [daidzein]
Output: 54.0

Input: Name the recorded Decomposition efficiency of daidzin family in roasted soy flour of the item CC(=O)OC[C@H]1O[C@@H](Oc2ccc3c(=O)c(-c4ccc(O)cc4)coc3c2)[C@H](O)[C@@H](O)[C@@H]1O [acetyldaidzin, 6″-O-acetyldaidzin] in your answer.
Output: 46.0
